STUDY_SYSTEM: human leukocyte 5-lipoxygenase (Homo sapiens, UniProt P09917)
Construct: endogenous in cells
Sequence (P09917 whole entry): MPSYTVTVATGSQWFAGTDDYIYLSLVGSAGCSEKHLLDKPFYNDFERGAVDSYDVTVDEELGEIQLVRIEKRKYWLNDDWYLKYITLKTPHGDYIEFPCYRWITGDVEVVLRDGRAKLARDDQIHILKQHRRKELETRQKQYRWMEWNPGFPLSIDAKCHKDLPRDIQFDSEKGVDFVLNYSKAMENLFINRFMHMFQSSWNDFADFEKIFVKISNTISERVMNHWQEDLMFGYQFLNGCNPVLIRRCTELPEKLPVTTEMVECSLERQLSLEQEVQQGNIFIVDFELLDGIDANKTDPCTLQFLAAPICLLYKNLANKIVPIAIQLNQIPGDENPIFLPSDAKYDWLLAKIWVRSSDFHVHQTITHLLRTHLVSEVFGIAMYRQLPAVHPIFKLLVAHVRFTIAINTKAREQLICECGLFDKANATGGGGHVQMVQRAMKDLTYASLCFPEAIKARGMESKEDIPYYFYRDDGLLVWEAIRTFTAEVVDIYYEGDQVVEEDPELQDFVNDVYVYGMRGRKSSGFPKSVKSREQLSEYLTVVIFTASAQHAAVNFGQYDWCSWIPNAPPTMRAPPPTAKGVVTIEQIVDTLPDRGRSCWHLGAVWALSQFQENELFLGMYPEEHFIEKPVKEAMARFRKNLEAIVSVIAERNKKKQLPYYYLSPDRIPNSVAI
PROTOCOL_NOTES: 5-Lipoxygenase Inhibitor in Human Leukocytes (5LOA1)
SETTINGS: 100 μM exogenous arachidonic acid; read-out: IC50 5LOA (100)*
The following compounds are listed with their measured IC50 values.
Reply with just the number (in µM).

{"COMPOUND": "O=C(O)c1ccccc1-c1ccccc1C(=O)Nc1ccc(CCCc2ccc(Cl)c(Cl)c2)cc1 [Example 1]", "STUDY_SYSTEM": "human leukocyte 5-lipoxygenase (Homo sapiens, UniProt P09917)", "MEASURED": 9.6}

Ask | Supply reported IC50 belonging to this compound: O=C(O)c1ccccc1-c1ccccc1C(=O)Nc1ccc(CCc2ccc(Cl)cc2)cc1 [Example 11]
Reply | 12

Ask | Please indicate IC50 recorded for CN(C(=O)c1ccccc1-c1ccccc1C(=O)O)c1ccc(CCc2ccc(Cl)c(Cl)c2)cc1 [Example 5]
Reply | 40
